// data source = PubChem BioAssay (NCI)

System: SF-295 CNS
method: NCI tumour cell line growth inhibition, 48 h
A collection of molecules and their measured TGI

Known TGI results, listed for orientation:
{"molecule": "COC(=O)c1cc(OCc2cc(OCc3ccc(Br)cc3)cc(OCc3ccc(Br)cc3)c2)cc(OCc2cc(OCc3ccc(Br)cc3)cc(OCc3ccc(Br)cc3)c2)c1", "measurement.target": "SF-295 CNS", "TGI": "> 100 µM"}
{"molecule": "COC(=O)C(Cc1cc(OC)c(OC)c(OC)c1)(NC(=O)c1ccccc1)P(=O)(OC)OC (centres undefined)", "measurement.target": "SF-295 CNS", "TGI": "> 100 µM"}
{"molecule": "Nc1[nH]nc2c1Cc1c(n(Cc3ccc(Cl)cc3)c3ccccc13)C(=O)N2", "measurement.target": "SF-295 CNS", "TGI": "35.9 µM"}
{"molecule": "CC12CCC(C)(c3cc(O)c(O)cc31)c1cc(O)c(O)cc12", "measurement.target": "SF-295 CNS", "TGI": "46.8 µM"}
{"molecule": "CCN(CC)C(=O)N1CN(c2ccccc2)C2(CCN(CCCC3(c4ccc(F)cc4)OCCO3)CC2)C1=O", "measurement.target": "SF-295 CNS", "TGI": "41.3 µM"}
{"molecule": "COc1cc(C2C(C(=O)Nc3ccccc3C)=C(C)NC(C)=C2C(=O)Nc2ccccc2C)ccc1O", "measurement.target": "SF-295 CNS", "TGI": "> 100 µM"}

Any idea what TGI was measured for Cn1c(=O)c2nc3sc4ccccc4c(=N)n3c2n(C)c1=O ?
> 100 µM

* * *

TGI listing for selected compounds.
Tested on: SN12C renal
method: NCI tumour cell line growth inhibition, 48 h

Use the examples below as a reference point.
{"compound": "CN=C(NC#N)NCc1ccccc1", "property.name": "TGI", "observed": "> 100 µM"}
{"compound": "CCOC1=NC(C(F)(F)F)(C(F)(F)F)N=C(/N=C(/N)N(C)C(C(C)C)P(=O)(OC(C)C)OC(C)C)O1 (stereo unspecified)", "property.name": "TGI", "observed": "> 100 µM"}
{"compound": "COC(=O)/C=C/c1cc(OC)c2c(c1)[C@@H](C(=O)OC)[C@H](c1ccc(OC)c(OC)c1)O2", "property.name": "TGI", "observed": "> 100 µM"}

Quick check: TGI on SN12C renal, item Cc1cc2c(C=O)[nH]nc2c(C#N)c1C ?
78.6 µM

Query the reported TGI for SN12C renal; item: O=c1oc2ccc([N+](=O)[O-])cc2cc1-c1csc(-c2ccccc2)n1
> 100 µM

Item OC(c1cc2c(Cl)cc(Cl)cc2c2cc(C(F)(F)F)ccc12)C1CCCCN1 (stereo unspecified) with SN12C renal - TGI?
3.38 µM

# get_value(readout= TGI, system= SN12C renal) for COc1cc(-c2cc(C(=O)N3CCN(C(=O)c4ccccc4NCc4cccs4)CC3)nc3cc(-c4ccccc4)nn23)cc(OC)c1OC
> 100 µM

Please provide the recorded TGI for O=CN/C=C\c1cc(O)ccc1O , tested on SN12C renal.
28.9 µM

Lab request: please report TGI under test system SN12C renal for O=C1COCCN1c1ccc(NCc2cn(Cc3ccc(F)cc3)c3ccccc23)cc1
> 83.7 µM

Entry O=c1cc(/C=C/c2ccccc2)c2ccc(O/C(=C\c3ccccc3)c3nc4ccccc4c(=O)o3)cc2o1 , system SN12C renal: what TGI was measured?
> 100 µM

Record Cc1c(OCc2cccc3ccccc23)ccc2c(=O)cc(S)oc12 : what is its TGI with SN12C renal?
> 100 µM

For the record O=C(CN1CCOCC1)c1ccc2c(c1)oc(=O)n2CCN1CCCCC1 , what value of TGI is listed for SN12C renal?
> 100 µM

// lookup TGI | system=SN12C renal | key= COc1ccc([C@H]2C=C(c3cc(F)c(Cl)cc3Cl)N=c3s/c(=C\c4ccc(-c5ccc(Cl)cc5Cl)o4)c(=O)n32)cc1
> 100 µM

Recorded TGI for O=C1CSC2(CC(/C=C/c3ccccc3[N+](=O)[O-])=NN2c2cccc(S(=O)(=O)O)c2)N1c1nc2ccccc2s1 (stereo unspecified) with SN12C renal, please?
54.9 µM

What TGI appears in the records for this compound with SN12C renal? C=C(C)[C@H]1C=C[C@@H](OC(C)=O)[C@@]2(COC(C)=O)[C@H](OC(=O)CCC)[C@H]3[C@@H](OC(C)=O)[C@@H](C)C[C@]3(O)C(=O)[C@@](C)(OC(C)=O)[C@H]12
> 100 µM

Any idea what TGI came out for CC1(C)C(=O)C2(N)CCC1C2 (stereo unspecified) on SN12C renal?
> 100 µM

Test system SN12C renal; read-out TGI; what value for CCn1cc(C(=O)O)c(=O)c2cc(F)c(N3CCNCC3)nc21 ?
> 100 µM

* * *

Known TGI of a selection of molecules
System: KM12 colon
method: NCI tumour cell line growth inhibition, 48 h
Quick reminder: number only, in µM, skip the unit.

Please report the recorded TGI for COc1cc(Nc2nccc(-c3cnn4ncccc34)n2)cc(OC)c1 .
0.272

* * *

Test system: K-562 leukemia
method: NCI tumour cell line growth inhibition, 48 h
property.name: TGI

Known TGI results, listed for orientation:
{"compound": "Cc1nc2c(ccc3[nH]c4ccccc4c32)s1", "TGI": "> 100 µM"}
{"compound": "COc1cc(Cl)c(C)cc1NC(=O)c1cc2ccccc2cc1O", "TGI": "23 µM"}
{"compound": "N[C@@H](Cc1ccc(N(CCCl)CCCl)cc1)C(=O)O", "TGI": "190 µM"}
{"compound": "COC(=O)Cc1c(-c2c(CC(=O)OC)c3ccccc3n2C2OC(COC3OC(COC(C)=O)C(OC(C)=O)C(OC(C)=O)C3OC(C)=O)C(O)C(O)C2O)[nH]c2ccccc12 (centres undefined)", "TGI": "> 100 µM"}
{"compound": "Cc1csc(CP(=O)(OC(C)C)OC(C)C)n1", "TGI": "> 100 µM"}
{"compound": "CCOC(=O)C1=CN(Cc2ccccc2)C2ON=C(c3ccc(Cl)cc3)C2C1 (centres undefined)", "TGI": "> 100 µM"}
{"compound": "CC(C)(C)OC(=O)/C=C/[C@@H](CCC(=O)/C=C/[C@H](/C=C\\CCCC(=O)O)NC1(c2ccccc2)c2ccccc2-c2ccccc21)O[Si](C)(C)C(C)(C)C", "TGI": "> 100 µM"}
{"compound": "CC(=O)SC(C[N+](=O)[O-])c1ccccc1 (centres undefined)", "TGI": "12.8 µM"}

Now consider the entry below.
Look at this compound and give its reported TGI. COc1ccc(S(=O)(=O)Nc2c(/C=C\c3cc(OC)c(OC)c(OC)c3)ccc(OC)c2O)cc1OC
> 100 µM

* * *

Listed below: TGI values for each entry.
Tested on: OVCAR-8 ovarian
method: NCI tumour cell line growth inhibition, 48 h

Some compounds with recorded TGI:
{"compound": "COc1ccc(C(CC(=O)c2ccc(O)cc2)C(C(=O)c2ccc(O)cc2)C(c2ccc(OC)cc2)C2C(=O)NC(=S)NC2=O)cc1 (centres undefined)", "measurement.target": "OVCAR-8 ovarian", "TGI": "60 µM"}
{"compound": "CN1CCN(C(=S)N(C(=O)c2ccc(Cl)cc2)C2CCCCC2)CC1", "measurement.target": "OVCAR-8 ovarian", "TGI": "> 100 µM"}
{"compound": "C=C1[C@@H]2CCC(C)(C)[C@H]1CCC(=O)[C@@H]2C(=O)OC", "measurement.target": "OVCAR-8 ovarian", "TGI": "> 100 µM"}
{"compound": "COc1cc2oc(=O)cc(C)c2c(OC)c1OC", "measurement.target": "OVCAR-8 ovarian", "TGI": "> 100 µM"}
{"compound": "Cc1cn(C2CC(/[N+]([O-])=N\\Nc3ccc([N+](=O)[O-])cc3)C(CO)O2)c(=O)[nH]c1=O (centres undefined)", "measurement.target": "OVCAR-8 ovarian", "TGI": "> 100 µM"}
{"compound": "C=C(C)[C@H]1C=C[C@@H](OC(C)=O)[C@@]2(COC(C)=O)[C@H](OC(=O)CCC)[C@H]3[C@@H](OC(C)=O)[C@@H](C)C[C@]3(O)C(=O)[C@@](C)(OC(C)=O)[C@H]12", "measurement.target": "OVCAR-8 ovarian", "TGI": "> 100 µM"}

Could you tell me which TGI is on file for COc1ccc2nc3c(cc2c1)C(=O)CC(C(F)(F)F)C3 (centres undefined) ?
> 100 µM

Query (compound): O=C1CCC(=O)C12CCc1ccccc12 ; field requested: TGI
> 100 µM

What value of measured TGI is listed for CC/C(=C(/c1ccc(Cl)cc1)c1ccc(OCCCN(C)C)cc1)c1ccc(OC)cc1 ?
17.6 µM

TGI for CC(=O)NC1C(OCc2ccccc2)OC(COC(=O)CCCCCCCCCCNC(=O)CCNc2ccc([N+](=O)[O-])c3[nH]c4ccc(O)cc4c(=O)c23)C(O)C1OC(C)C(=O)N[C@H](C(=O)N[C@H](CCC(=O)O)C(N)=O)C(C)C (some centres undefined) ?
> 100 µM

Any idea what its TGI is? The compound is CCN(CC)[C@@H]1c2cc3c(cc2C(c2cc(OC)c(O)c(OC)c2)C2C(=O)CO[C@@H]21)OCO3 (some centres undefined)
> 100 µM
